tested on: MDCK cells co-expressing GFP-K-RASG12V and mCherry-CAAX; assay: Cytotoxicity in mislocalization screen (death of all cells in well); conditions: drug caused death of all cells in well at 30 μM
attribute-measured: Cytotoxic at 30 μM

>>> print(df.to_string())
                                   compound                              study_system  attribute_measured  result
0  CCN(CC=C(c1ccccc1)c1ccccc1)[C@@H](C)c1ccc(OC)cc1 [NY0431]  MDCK cells co-expressing GFP-K-RASG12V and mCherry-CAAX  Cytotoxic at 30 μM      No
1  C[C@H](c1ccc(F)cc1)N(CC=C(c1ccccc1)c1ccccc1)CCn1cc(CN)nn1 [PW305]  MDCK cells co-expressing GFP-K-RASG12V and mCherry-CAAX  Cytotoxic at 30 μM     Yes
2  C#CCN(CC=C(c1ccccc1)c1ccccc1)[C@H](C)c1ccc(OC)cc1 [NY0234]  MDCK cells co-expressing GFP-K-RASG12V and mCherry-CAAX  Cytotoxic at 30 μM      No
3  COc1ccc([C@@H](C)N(CC=C(c2ccccc2)c2ccccc2)CCN2CCC2)cc1 [NY0593]  MDCK cells co-expressing GFP-K-RASG12V and mCherry-CAAX  Cytotoxic at 30 μM     Yes

[ask] What value of Cytotoxic at 30 μM has been recorded for this entry: COc1ccc([C@@H](C)N(CC=C(c2ccccc2)c2ccccc2)CCN2CCN(S(C)(=O)=O)CC2)cc1 [NY351]
[reply] No

[ask] What value of Cytotoxic at 30 μM has been recorded for this entry: COc1ccc([C@@H](C)N(CC=C(c2ccccc2)c2ccccc2)CCN2CCNC(=O)C2)cc1 [NY325]
[reply] No

[ask] What value of Cytotoxic at 30 μM has been recorded for this entry: C[C@@H](NCCN1c2ccccc2CCc2ccccc21)c1ccccc1 [NY0553]
[reply] No

[ask] What value of Cytotoxic at 30 μM has been recorded for this entry: C(CN1CCN(c2ccccc2)CC1)=C(c1ccccc1)c1ccccc1 [NY307, 1-(3,3-diphenylallyl)-4-phenylpiperazine]
[reply] No

[ask] What value of Cytotoxic at 30 μM has been recorded for this entry: COc1ccc(CCN(CC=C(c2ccccc2)c2ccccc2)CC=C(c2ccccc2)c2ccccc2)cc1 [NY0220]
[reply] No

[ask] What value of Cytotoxic at 30 μM has been recorded for this entry: C(CN(CC=C(c1ccccc1)c1ccccc1)C1(c2ccccc2)CC1)=C(c1ccccc1)c1ccccc1 [NY040401]
[reply] No

[ask] What value of Cytotoxic at 30 μM has been recorded for this entry: C[C@H](c1ccc(F)cc1)N(CC=C(c1ccccc1)c1ccccc1)CCNc1cc(-c2ccc(F)cc2)n[nH]1 [PW2100]
[reply] No

* * *

biological target: mGFP-K-RASG12V (Homo sapiens (Human), UniProt P01116, G12V); test: K-Ras mislocalization assay (confocal microscopy, Manders coefficient); type: cell-based; set-up: key: Manders coefficient: fraction of mCherry-CAAX co-localizing with GFP-K-Ras; details: maximal effect, Manders coefficient; MDCK cells, 48 h
attribute-measured: Emax
Just the number, please.

Worked set:
                                   molecule  attribute_measured  readout_number
0  COc1ccc([C@@H](C)N(CC=C(c2ccccc2)c2ccccc2)CCO)cc1                Emax            0.72
1  C[C@H](c1ccc(F)cc1)N(CC=C(c1ccccc1)c1ccccc1)CCNc1cc(-c2ccc(F)cc2)n[nH]1                Emax           0.414
2  CN1CCN(C(=O)[C@H](NCC=C(c2ccccc2)c2ccccc2)c2ccccc2)CC1                Emax           0.732

[ask] What value of Emax has been recorded for this entry: `O=C(OCc1ccccc1)N(CC=C(c1ccccc1)c1ccccc1)CCN1CCCC1`
[reply] 0.709

[ask] What value of Emax has been recorded for this entry: C[C@@H](NCCC(c1ccccc1)c1ccccc1)c1ccccc1 [AVA08, R-Fendiline, reference compound]
[reply] 0.811

[ask] What value of Emax has been recorded for this entry: `CN1CCN(CCN(CC=C(c2ccccc2)c2ccccc2)[C@@H]2C[C@H]2c2ccccc2)CC1`
[reply] 0.893

* * *

target: mGFP-K-RASG12V (Homo sapiens (Human), UniProt P01116, G12V); assay: K-Ras mislocalization assay (confocal microscopy, Manders coefficient); format: cell-based; parameters: key: Manders coefficient: fraction of mCherry-CAAX co-localizing with GFP-K-Ras; settings: maximal effect, Manders coefficient; MDCK cells, 48 h
attribute-measured: Emax
Just the number, please.

>>> df
                                   molecule                              study_system  readout_number
0  C[C@H](c1ccc(F)cc1)N(CC=C(c1ccccc1)c1ccccc1)CCn1cc(CCO)nn1 [PW303]  mGFP-K-RASG12V (Homo sapiens (Human), UniProt P01116, G12V)           0.675

[ask] Please state recorded Emax (tested on mGFP-K-RASG12V (Homo sapiens (Human), UniProt P01116, G12V)) of C(CNC1(c2ccccc2)CCCCC1)=C(c1ccccc1)c1ccccc1 [NY0514]
[reply] 0.802

[ask] Please state recorded Emax (tested on mGFP-K-RASG12V (Homo sapiens (Human), UniProt P01116, G12V)) of CC(=O)NNC(=O)[C@H](NCC=C(c1ccccc1)c1ccccc1)c1ccccc1 [NY0568]
[reply] 0.364

[ask] Please state recorded Emax (tested on mGFP-K-RASG12V (Homo sapiens (Human), UniProt P01116, G12V)) of COc1ccc(/C(=C\CN(CCN2CCCC2)[C@H](C)c2ccc(F)cc2)c2ccccc2)cc1 [PW460]
[reply] 0.801

* * *

test system: MDCK cells co-expressing GFP-K-RASG12V and mCherry-CAAX; assay: Cytotoxicity in mislocalization screen (death of all cells in well); settings: drug caused death of all cells in well at 30 μM
attribute-measured: Cytotoxic at 30 μM

                                   compound                              study_system  attribute_measured  result
0  C[C@H](c1ccc(F)cc1)N(CC=C(c1ccccc1)c1ccccc1)CCN1CCCC1 [NY0506]  MDCK cells co-expressing GFP-K-RASG12V and mCherry-CAAX  Cytotoxic at 30 μM     Yes
1  C[C@H](c1ccc(F)cc1)N(CC=C(c1ccccc1)c1ccccc1)CCn1cc(CN(C)C)nn1 [PW306]  MDCK cells co-expressing GFP-K-RASG12V and mCherry-CAAX  Cytotoxic at 30 μM     Yes
2  C[C@@H](CN(CC=C(c1ccccc1)c1ccccc1)CC=C(c1ccccc1)c1ccccc1)c1ccccc1 [NY022701]  MDCK cells co-expressing GFP-K-RASG12V and mCherry-CAAX  Cytotoxic at 30 μM      No
3  C[C@H](c1ccc(F)cc1)N(CC=C(c1ccccc1)c1ccccc1)CCn1cc(-c2ccc(F)cc2)nn1 [PW308]  MDCK cells co-expressing GFP-K-RASG12V and mCherry-CAAX  Cytotoxic at 30 μM      No
4  Cc1ccc(C(=CCN(CCN2CCCC2)[C@H](C)c2ccc(F)cc2)c2ccc(C)cc2)cc1 [PW327]  MDCK cells co-expressing GFP-K-RASG12V and mCherry-CAAX  Cytotoxic at 30 μM     Yes

[ask] Please state recorded Cytotoxic at 30 μM (tested on MDCK cells co-expressing GFP-K-RASG12V and mCherry-CAAX) of COc1ccc(NC(=O)N(CC=C(c2ccccc2)c2ccccc2)[C@H](C)c2ccc(OC)cc2)cc1 [NY0224]
[reply] No

[ask] Please state recorded Cytotoxic at 30 μM (tested on MDCK cells co-expressing GFP-K-RASG12V and mCherry-CAAX) of C(CNC1(c2ccccc2)CCCCC1)=C(c1ccccc1)c1ccccc1 [NY0514]
[reply] No

* * *

molecular target: mGFP-K-RASG12V (Homo sapiens (Human), UniProt P01116, G12V); test: K-Ras mislocalization assay (confocal microscopy, Manders coefficient); type: cell-based; set-up: key: Manders coefficient: fraction of mCherry-CAAX co-localizing with GFP-K-Ras; conditions: maximal effect, Manders coefficient; MDCK cells, 48 h
Group membership follows Emax per the scheme class 0 (below 0.7), class 1 (0.7 to below 0.8), class 2 (0.8 or more)

[ask] For this molecule, which bin applies? `COC(=O)[C@@H](c1ccccc1)N(CC=C(c1ccccc1)c1ccccc1)C(=O)NC(C)(C)C`
[reply] class 0

[ask] For this molecule, which bin applies? `C[C@@H](CN(CC=C(c1ccccc1)c1ccccc1)CC=C(c1ccccc1)c1ccccc1)c1ccccc1`
[reply] class 0

[ask] For this molecule, which bin applies? `CCN(CC=C(c1ccccc1)c1ccccc1)[C@H](C)c1ccc(OC)cc1`
[reply] class 2

[ask] For this molecule, which bin applies? `C[C@H](c1ccc(F)cc1)N(CC=C(c1ccccc1)c1ccccc1)CCn1cc(-c2ccc(F)cc2)nn1`
[reply] class 1

[ask] For this molecule, which bin applies? `C=CCN(CCN1CCN(C)CC1)[C@H](C)c1ccc(OC)cc1`
[reply] class 1

[ask] For this molecule, which bin applies? `CCN1CCN(CCN(CC=C(c2ccccc2)c2ccccc2)[C@H](C)c2ccc(OC)cc2)CC1`
[reply] class 2
